Assay system: T1, 4H3606-AA
T1 chain: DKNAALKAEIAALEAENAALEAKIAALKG
Measurement protocol: two-hybrid library CCmax;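 also: natural log of median RNA to DNA barcode read ratio; higher means stronger binding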
Condition notes: mean of both orientations
The following binders are listed with their measured interaction score values.

Binder	interaction score
DKNAALEAKIAALEAKNAALEAEIAALKG [4H3378-AA]	-0.302
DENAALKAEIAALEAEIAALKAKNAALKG [4H1552-AA]	-0.722
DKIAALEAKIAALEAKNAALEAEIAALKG [4H2354-AA]	-0.995
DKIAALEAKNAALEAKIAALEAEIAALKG [4H2466-AA]	-1.47
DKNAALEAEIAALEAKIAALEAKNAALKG [4H3112-AA]	-0.965
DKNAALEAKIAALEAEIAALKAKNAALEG [4H3343-AA]	-1.94
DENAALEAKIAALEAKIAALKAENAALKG [4H1324-AA]	-1.02
DEIAALEAKIAALKAENAALEAENAALKG [4H340-AA]	-0.46
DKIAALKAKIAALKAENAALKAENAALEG [4H2907-AA]	0.48
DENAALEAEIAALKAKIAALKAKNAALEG [4H1135-AA]	0.227
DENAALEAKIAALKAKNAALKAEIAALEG [4H1401-AA]	2.07
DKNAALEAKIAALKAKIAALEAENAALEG [4H3427-AA]	-0.74
DKNAALEAEIAALKAENAALKAEIAALKG [4H3162-AA]	-0.0579
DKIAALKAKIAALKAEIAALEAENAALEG [4H2883-AA]	0.716
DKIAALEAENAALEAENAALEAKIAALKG [4H2198-AA]	-1.01
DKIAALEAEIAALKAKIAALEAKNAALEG [4H2151-AA]	-1.24
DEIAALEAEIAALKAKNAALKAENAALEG [4H123-AA]	1.04
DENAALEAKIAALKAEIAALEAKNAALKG [4H1352-AA]	-0.743
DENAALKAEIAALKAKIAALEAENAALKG [4H1636-AA]	-1.17
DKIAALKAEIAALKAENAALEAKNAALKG [4H2648-AA]	-1.35
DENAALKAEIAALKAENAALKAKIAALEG [4H1629-AA]	0.462
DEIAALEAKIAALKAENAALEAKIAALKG [4H342-AA]	1.55
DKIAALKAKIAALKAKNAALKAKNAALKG [4H2944-AA]	-0.0316
DKIAALKAKNAALKAKIAALKAKNAALKG [4H3056-AA]	0.58
DKNAALEAKIAALKAENAALEAKIAALEG [4H3413-AA]	1.14
DKNAALKAEIAALEAEIAALEAENAALKG [4H3588-AA]	-1.57
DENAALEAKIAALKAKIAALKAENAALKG [4H1388-AA]	0.583
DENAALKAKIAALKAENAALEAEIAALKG [4H1874-AA]	2.08

src = paper PMC10397247
